These data points were gathered from patent US10683297B2.

experiment.summary: Pharmacokinetics after intravenous and oral administration in rats
Type: in vivo
experimental.context: iv dosing, dose 1 mg/kg (Ex. 9: 0.6, Ex. 18: 0.5, Ex. 50: 0.96 mg/kg)
# Clearance (CL) after iv dosing listing for each entry below
Numbers only here, please. The scale is mL/min/kg.

# annotated cases, reported Clearance (CL) after iv dosing shown
>  <compound>
CC(C)(O)Cc1nc2cc(Nc3ncc(Cl)c(NC4CCN(c5ccc(C#N)nn5)CC4)n3)ccn2n1 [Example 77]

>  <Clearance (CL) after iv dosing, mL/min/kg>
151

$$$$
>  <compound>
CCC1CN(c2ccc(C#N)cn2)CCC1Nc1nc(Nc2ccn3c(C)cnc3c2)ncc1Cl (stereo not shown) [Example 2]

>  <Clearance (CL) after iv dosing, mL/min/kg>
8.5

$$$$
>  <compound>
CC(C)(O)Cn1nnc2cc(Nc3ncc(Cl)c(NC4CCN(c5ccc(C#N)cn5)CC4)n3)ccc21 [Example 69]

>  <Clearance (CL) after iv dosing, mL/min/kg>
22.2

$$$$
>  <compound>
Cn1nnc2cc(Nc3ncc(Cl)c(NC4CCN(c5ccc(C#N)nn5)CC4)n3)ccc21 [Example 47]

>  <Clearance (CL) after iv dosing, mL/min/kg>
11.7

$$$$
>  <compound>
Cc1nc2cc(Nc3ncc(Cl)c(NC4CCN(c5ccc(C#N)cn5)CC4)n3)ccn2n1 [Example 32]

>  <Clearance (CL) after iv dosing, mL/min/kg>
14.2

$$$$

**Q:** For CCC1CN(c2ccc(C#N)cn2)CCC1Nc1nc(Nc2ccn3c(C)nnc3c2)ncc1Cl (stereo not shown) [Example 17] , what is its reported Clearance (CL) after iv dosing?
**A:** 17.8

**Q:** For Cc1cn2ncc(Nc3ncc(Cl)c(NC4CCN(c5ccc(C#N)cn5)CC4)n3)cc2n1 [Example 37] , what is its reported Clearance (CL) after iv dosing?
**A:** 11.5

**Q:** For Cc1nc2cc(Nc3ncc(Cl)c(NC4CCN(c5ccc(C#N)nn5)CC4)n3)ccc2n1C [Example 49] , what is its reported Clearance (CL) after iv dosing?
**A:** 10.8

**Q:** For N#Cc1ccc(N2CCC(Nc3nc(Nc4ccn5ccnc5c4)ncc3Cl)CC2)nn1 [Example 4] , what is its reported Clearance (CL) after iv dosing?
**A:** 19

**Q:** For Cc1cnc2cc(Nc3ncc(Cl)c(NC4CCN(c5ccc(C#N)cn5)CC4)n3)cnn12 [Example 21] , what is its reported Clearance (CL) after iv dosing?
**A:** 11.8

###

measurement.target: JAK1 (h) (Homo sapiens, UniProt P23458)
Sequence (P23458 whole entry): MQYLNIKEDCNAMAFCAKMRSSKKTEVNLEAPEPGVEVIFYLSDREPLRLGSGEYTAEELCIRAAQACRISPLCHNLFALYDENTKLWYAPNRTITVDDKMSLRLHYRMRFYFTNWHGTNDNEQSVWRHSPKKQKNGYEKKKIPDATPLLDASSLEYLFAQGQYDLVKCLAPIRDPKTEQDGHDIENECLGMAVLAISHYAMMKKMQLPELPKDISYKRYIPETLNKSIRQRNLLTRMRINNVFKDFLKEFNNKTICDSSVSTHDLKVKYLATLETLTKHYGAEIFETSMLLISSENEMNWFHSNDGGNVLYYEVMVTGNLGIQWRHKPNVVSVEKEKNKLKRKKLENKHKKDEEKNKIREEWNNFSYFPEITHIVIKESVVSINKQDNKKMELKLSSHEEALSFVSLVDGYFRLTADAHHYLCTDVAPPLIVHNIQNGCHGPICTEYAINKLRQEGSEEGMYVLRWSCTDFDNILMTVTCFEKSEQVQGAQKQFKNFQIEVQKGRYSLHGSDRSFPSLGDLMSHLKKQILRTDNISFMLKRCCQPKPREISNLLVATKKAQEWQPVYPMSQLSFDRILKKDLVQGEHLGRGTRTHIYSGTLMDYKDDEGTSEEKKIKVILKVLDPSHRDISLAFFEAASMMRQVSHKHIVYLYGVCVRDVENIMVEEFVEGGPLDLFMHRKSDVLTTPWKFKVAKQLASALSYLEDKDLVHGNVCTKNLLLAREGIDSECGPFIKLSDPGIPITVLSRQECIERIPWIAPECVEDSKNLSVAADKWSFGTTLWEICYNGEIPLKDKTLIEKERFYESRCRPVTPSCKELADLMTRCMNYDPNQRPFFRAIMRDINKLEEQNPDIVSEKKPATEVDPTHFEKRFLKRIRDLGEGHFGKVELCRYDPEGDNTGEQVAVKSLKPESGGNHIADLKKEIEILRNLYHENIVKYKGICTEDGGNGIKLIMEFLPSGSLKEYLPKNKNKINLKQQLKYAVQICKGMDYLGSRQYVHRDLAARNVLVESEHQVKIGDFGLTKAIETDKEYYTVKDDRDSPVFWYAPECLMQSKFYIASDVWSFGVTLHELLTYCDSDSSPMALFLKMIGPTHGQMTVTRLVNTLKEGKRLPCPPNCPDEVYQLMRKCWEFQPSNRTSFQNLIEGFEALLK
property.name: IC50 (nM)
Numbers only here, please. The scale is nM.

>  <compound>
CC(C)(O)c1cn2ccc(Nc3ncc(Cl)c(NC4CCN(c5ccc(C#N)nn5)CC4)n3)cc2n1 [Example 71]

>  <property.name>
IC50

>  <reading.unit>
nM

>  <measured.result>
0.9

$$$$

**Q:** Observed IC50 on JAK1 (h) (Homo sapiens, UniProt P23458) for CC(C)(O)Cc1nc2ccc(Nc3ncc(Cl)c(NC4CCN(c5ccc(C#N)cn5)CC4)n3)cn2n1 [Example 67] , please.
**A:** 0.6

###

experiment.summary: Pharmacokinetics after intravenous and oral administration in rats
Format: in vivo
experimental.context: rat, plasma, oral (generally 5 or 10 mg/kg) versus iv dosing, read-out: F (oral bioavailability)
# bioavailability listing for each entry below
Numbers only here, please. The scale is %.

# annotated cases, reported bioavailability shown
>  <entry.smiles>
Cc1nc2cc(Nc3ncc(Cl)c(NC4CCN(c5ccc(C#N)nn5)CC4)n3)ccc2n1C

>  <measured.result>
79.6

$$$$
>  <entry.smiles>
CC(C)(O)Cc1nc2ccc(Nc3ncc(Cl)c(NC4CCN(c5ccc(C#N)cn5)CC4)n3)cn2n1

>  <measured.result>
49.7

$$$$

**Q:** For Cc1nc2cc(Nc3ncc(Cl)c(NC4CCN(c5ccc(C#N)cn5)CC4)n3)ccc2n1C , what is its reported bioavailability?
**A:** 79.4
